Provide the recorded ΔH for the entries that follow.
systemUnderTest: T1, TTD (residues 134–285) of UHRF1 (Homo sapiens, UniProt Q96T88)
T1 construct: TTD (residues 134–285); GST (N, cleaved yes); made in house; host or cells: E. coli BL21 (DE3)
T1 sequence (Q96T88 134-285): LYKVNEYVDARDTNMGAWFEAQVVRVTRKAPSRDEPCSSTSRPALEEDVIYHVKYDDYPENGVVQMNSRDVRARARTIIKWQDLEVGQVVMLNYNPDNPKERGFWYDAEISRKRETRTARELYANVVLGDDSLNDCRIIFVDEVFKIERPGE
assaySummary: ITC, TTD titrated into Spacer variants and other UHRF1 fragments
Assay type: binding
particulars: ITC, TTD in syringe
Just the number in cal/mol, nothing appended.

Problem: Determine its reported ΔH: Spacer∆655-659: internal deletion of the Spacer, residues 655–659 (protein, left off: GST, end not stated, cleaved) PGPWTKEGKDRIKKLGLTMQYPEGYLEALANREREKENSKREEEEQQEGGFASPRTGKGKWKRKSAGGGSPRRTSKKTKVEPY
Result: -7634

Problem: Determine its reported ΔH: Spacer∆650-654: internal deletion of the Spacer, residues 650–654 (protein, left off: GST, end not stated, cleaved) PGPWTKEGKDRIKKLGLTMQYPEGYLEALANREREKENSKREEEEQQEGGFASPRTGKGKWKRGPSRAGSPRRTSKKTKVEPY
Result: -6475

Problem: Determine its reported ΔH: Spacer ∆642-651: internal deletion of the Spacer, residues 642–651 (protein, left off: GST, end not stated, cleaved) PGPWTKEGKDRIKKLGLTMQYPEGYLEALANREREKENSKREEEEQQEGGFASPRAGGGPSRAGSPRRTSKKTKVEPY
Result: -3833
